Tested on: Puccinia recondita f. sp. tritici
assay.remarks: Test C: test suspension sprayed on wheat seedlings, inoculated next day with Puccinia recondita f. sp. tritici (wheat leaf rust), visual disease rating
Format: in vivo
experimental.setup: Rate 10 ppm test suspension, relative to the controls
measured.metric: Test C rating (% disease control) (%)
Numbers only; they are read as %.

Example results:
Request: Test C rating (% disease control) for "O=C(c1ccc(Cc2ccc(-c3noc(C(F)(F)F)n3)cc2)o1)C(F)(F)F" ?
Response: 0

Request: Test C rating (% disease control) for "CN(C)C(=O)c1cnn(CCCc2ccc(-c3noc(C(F)(F)F)n3)cc2)c1" ?
Response: 93

Request: Test C rating (% disease control) for "COC(=O)c1csc(Cc2ccc(-c3noc(C(F)(F)F)n3)cc2)c1" ?
Response: 0

Request: Test C rating (% disease control) for "O=C(OCc1ccccc1)c1cnn(Cc2ccc(-c3noc(C(F)(F)F)n3)cc2)c1" ?
Response: 100

Request: Test C rating (% disease control) for "N#Cc1cccn(Cc2ccc(-c3noc(C(F)(F)F)n3)cc2)c1=O" ?
Response: 100

Request: Test C rating (% disease control) for "CNC(=O)c1cnn(CCCc2ccc(-c3noc(C(F)(F)F)n3)cc2)c1" ?
Response: 96

Request: Test C rating (% disease control) for "C#CCON=Cc1cnn(Cc2ccc(-c3noc(C(F)(F)F)n3)cc2)c1" ?
Response: 99

Moving on to another molecule below.
Request: Test C rating (% disease control) for "COC(=O)c1cccn(Cc2ccc(-c3noc(C(F)(F)F)n3)cc2)c1=O" ?
Response: 93

---

System: Phakopsora pachyrhizi
assay.remarks: Test A: test suspension sprayed on soybean seedlings, inoculated next day with Phakopsora pachyrhizi (Asian soybean rust), visual disease rating
Format: in vivo
experimental.setup: Rate 50 ppm test suspension, relative to the controls
measured.metric: Test A rating (% disease control) (%)
Numbers only; they are read as %.

Request: Test A rating (% disease control) for CCN(CC)C(=O)C1=NOC(Cc2ccc(-c3noc(C(F)(F)F)n3)s2)C1 (racemic) ?
Response: 100

Request: Test A rating (% disease control) for "CCOC(=O)c1cnn(CCN2CCC(c3noc(C(F)(F)F)n3)CC2)c1" ?
Response: 0

Request: Test A rating (% disease control) for "O=C(OCCBr)c1cnn(Cc2ccc(-c3noc(C(F)(F)F)n3)cc2)c1" ?
Response: 81

Request: Test A rating (% disease control) for COCCNC(=O)C1=NOC(Cc2ccc(-c3noc(C(F)(F)F)n3)s2)C1 (racemic) ?
Response: 100

Continuing:
Request: Test A rating (% disease control) for CN(C)C(=O)C1=NOC(Cc2ccc(-c3noc(C(F)(F)F)n3)s2)C1 (racemic) ?
Response: 100

---

We begin with a simple list: items and their reported Test C rating (% disease control).
System: Puccinia recondita f. sp. tritici
assay.remarks: Test C: test suspension sprayed on wheat seedlings, inoculated next day with Puccinia recondita f. sp. tritici (wheat leaf rust), visual disease rating
Format: in vivo
experimental.setup: Rate 10 ppm test suspension, relative to the controls
Numbers only; they are read as %.

Example results:
Request: Test C rating (% disease control) for COC(=O)c1coc(Cc2ccc(-c3noc(C(F)(F)F)n3)cc2)c1 [compound 456] ?
Response: 68

Request: Test C rating (% disease control) for COC(=O)c1coc(Cc2ccc(-c3noc(C(F)(F)F)n3)cc2)n1 [Compound 490] ?
Response: 74

Request: Test C rating (% disease control) for O=C(NCCC(F)(F)F)c1csc(COc2ccc(-c3noc(C(F)(F)F)n3)cc2)n1 [compound 472] ?
Response: 0

Continuing:
Request: Test C rating (% disease control) for FC(F)(F)c1nc(-c2ccc(Cn3cc4cc(Br)cnc4n3)cc2)no1 [compound 414] ?
Response: 100

Request: Test C rating (% disease control) for COC(=O)c1nccn(Cc2ccc(-c3noc(C(F)(F)F)n3)cc2)c1=O [compound 423] ?
Response: 80

Request: Test C rating (% disease control) for O=C(NCc1cccnc1)c1cnn(Cc2ccc(-c3noc(C(F)(F)F)n3)cc2)c1 [compound 483] ?
Response: 54

Request: Test C rating (% disease control) for FC(F)(F)c1nc(-c2ccc(Cn3ncc4ncccc43)cc2)no1 [compound 408] ?
Response: 100

Request: Test C rating (% disease control) for COCCNC(=O)c1csc(Cc2ccc(-c3noc(C(F)(F)F)n3)cc2)n1 [compound 394] ?
Response: 100

These entries and their values trace back to patent US12606548B2.
